pIC50: −log10 of the molar value.
Recorded pIC50 for compounds tested on IRAK4 (Homo sapiens (Human), UniProt Q9NWZ3), drawn from a number of studies.
REPORTED_PROPERTY: pIC50

1. Cc1nc(Nc2ccnc(F)c2)nc(N[C@@H]2C[C@H](CO)[C@@H](O)[C@H]2O)c1-c1nc2ccccc2s1
2. C=CCc1c[nH]c(=O)c2cc3ccnc(OC[C@@H]4CCC(=O)N4)c3cc12
3. CC(C)Nc1cc(-n2ncc3cc(C#N)cnc32)ncc1-c1cn([C@H]2CCN(S(C)(=O)=O)C[C@H]2OS(C)(=O)=O)nn1
Request: Which order do these items fall in when sorted by pIC50 from largest to smallest? Thanks in advance for listing the labels in the requested order.
Result: 3, 2, 1

====

Recorded IC50 for molecules tested on IRAK4 (Homo sapiens (Human), UniProt Q9NWZ3), drawn from a number of studies.
REPORTED_PROPERTY: IC50 (µM)

CC(C)Nc1c(C(=O)NC2CCNCC2)cnc2c1Oc1cc(C#N)ccc1O2	0.085

a. CC(C)Nc1cc(Nc2ccc3ncsc3c2)ncc1-c1nnc(-c2ccc(F)c(S(=O)(=O)NC(C)(C)C)c2)o1
b. CS(=O)(=O)CCc1cn2cc(NC(=O)c3coc(-c4ccnc(N)c4)n3)c(N3CCCCC3)cc2n1
Request: Lower value of IC50 belongs to which: a or b ? I would appreciate it if you answered with the label of your choice.
Result: b

I. CC(=O)NC1CC(NC(=O)c2cnc3ccc(-c4cn[nH]c4)cc3c2NC2CC(F)(F)C2)C1 (stereo not shown)
II. CC(C)Nc1cc(Nc2ccc3ncsc3c2)ncc1C(=O)NC[C@@H](F)C(O)C(C)C (stereo partly shown)
Request: // which entry has the larger IC50 value, I or II ? I would appreciate it if you answered with the label of your choice.
Result: I
(I: 0.0226 µM, II: 0.003 µM)

P. CC(C)(O)[C@H](F)CNC(=O)c1cnc(Nc2ccc3ncsc3c2)cc1NCc1ccc(Cl)cc1
Q. CCN(CC)Cc1cn(-c2cnc(-n3ncc4cc(C#N)cnc43)cc2NC(C)C)nn1
Request: Lower value of IC50 belongs to which: P or Q ? I would appreciate it if you answered with the label of your choice.
Result: P
(P: 0.0098 µM, Q: 0.018 µM)

A. NCC1CCN(c2cc3nc(CCC(=O)O)cn3cc2NC(=O)c2cccc(C(F)(F)F)n2)CC1
B. CC(=O)N[C@H](C)CCNC(=O)c1cnc(Nc2ccc3ncsc3c2)cc1NC(C)C
Request: Lower value of IC50 belongs to which: A or B ? I would appreciate it if you answered with the label of your choice.
Result: B

1. COc1cc2nn([C@H]3CC[C@H](N(C)C4CCC5(CC4)CCN(C(=O)c4ccc(Cl)c(N6CCC(=O)NC6=O)c4)CC5)CC3)cc2cc1NC(=O)c1cccc(C(F)(F)F)n1
2. CC(C)(O)[C@H](F)CNC(=O)c1cnc(Nc2ccc3nsnc3c2)cc1NC1CCCC1
Request: Lower value of IC50 belongs to which: 1 or 2 ? I would appreciate it if you answered with the label of your choice.
Result: 1
(1: 0.0036 µM, 2: 0.0082 µM)

====

Recorded pIC50 for molecules tested on IRAK4 (Homo sapiens (Human), UniProt Q9NWZ3), drawn from a number of studies.
pIC50: −log10 of the molar value.
REPORTED_PROPERTY: pIC50

Worked cases, pIC50 given:
CNC(=O)c1ccc(Nc2cc(Nc3ccc4ncsc4c3)ncc2C(=O)NC[C@@H](F)C(C)(C)O)cc1	8.52
OC[C@H]1C[C@@H](Nc2nc(Nc3ccncc3F)ncc2-c2nc3ccccc3s2)[C@H](O)[C@@H]1O	7.36
CC[C@@H]1[C@H](F)C(=O)N[C@@H]1COc1nccc2cc3c(=O)[nH]cc(I)c3cc12	8.38
Cn1cc(NC(=O)c2ccc3ccc(N4C[C@H]5CNC[C@@H]4C5)nn23)c(C(F)(F)F)n1	6.94
CC(C)(O)[C@H](F)CNC(=O)c1cnc(-c2cnc3cc(C#N)cnn23)cc1Nc1cnn(CC(F)F)c1	8.52
CN(C)C1CCC(Nc2ncnc3ccc(-c4ccncc4)cc23)CC1 (single isomer, unassigned)	7.96

A. CC(C)(O)[C@H](F)CNC(=O)c1cnc(Nc2ccc3ncc(C#N)cc3n2)cc1NC1CCCC1(F)F (stereo partly drawn)
B. Cc1cnn2c(-c3cc(NC4CC4)c(C(=O)NC[C@@H](F)C(C)(C)O)cn3)cnc2c1
Request: Lower value of pIC50 belongs to which: A or B ? I would appreciate it if you answered with the label of your choice.
Result: B
(B: 8.30, A: 8.74)
